test system: SK-BR-3; experiment: Antiproliferative activity against human SK-BR-3 cells assessed as reduction in cell growth incubated for 72 hrs by SRB assay; format: functional, cell-based; conditions: SK-BR-3, 72 h
pIC50: −log10 of the molar value.
# binarize pIC50: threshold 6 inclusive, high side class 1, low side class 0

INSERT INTO results (molecule, tested_on, assigned_category) VALUES
  ('CO[C@@H](/C=C/C=C(/C)C(N)=O)[C@@H](OC(N)=O)/C(C)=C/[C@H](C)[C@@H](O)[C@H](C[C@H](C)CC1=C(NCCCN2CCCC2)C(=O)C=C(NCCCN2CCCC2)C1=O)OC', 'SK-BR-3', 'class 0'),
  ('C=CCNC1=C2C[C@@H](C)C[C@H](OC)[C@H](O)[C@@H](C)/C=C(\C)[C@H](OC(N)=O)[C@@H](OC)/C=C\C=C(/C)C(=O)NC(=CC1=O)C2=O [TANESPIMYCIN]', 'SK-BR-3', 'class 1'),
  ('CO[C@H]1/C=C\C=C(/C)C(=O)NC2=CC(=O)C(NCC3CCC(C(=O)O)CC3)=C(C[C@@H](C)C[C@H](OC)[C@H](O)[C@@H](C)/C=C(\C)[C@@H]1OC(N)=O)C2=O (stereo not given in full)', 'SK-BR-3', 'class 0');

Consider now this further molecule.
Task: # check: pIC50 of C#CCNC1=C2C[C@@H](C)C[C@H](OC)[C@H](O)[C@@H](C)/C=C(\C)[C@H](OC(N)=O)[C@@H](OC)/C=C\C=C(/C)C(=O)NC(=CC1=O)C2=O is greater than or equal to 6
Result: class 0

----------
test: Selectivity index, ratio of IC50 for cytotoxicity against human HDF cells to IC50 for cytotoxicity against human U-87 MG cells; type: toxicity, cell-based; details: HDF cells versus U-87 MG cells, read-out: Ratio IC50
Lab note: compare selectivity ratio with 2, writing Y if less and N if equal or more.

Completed entries (count: 10):
INSERT INTO results (molecule, assigned_category) VALUES
  ('CO[C@@H](C=CC=C(C)C(N)=O)[C@@H](OC(N)=O)/C(C)=C/[C@H](C)[C@@H](O)[C@H](C[C@H](C)CC1=C(NCCO)C(=O)C=C(NCCO)C1=O)OC', 'N'),
  ('CO[C@H]1/C=C\C=C(/C)C(=O)NC2=CC(=O)C(NCCOCCO)=C(C[C@@H](C)C[C@H](OC)[C@H](O)[C@@H](C)/C=C(\C)[C@@H]1OC(N)=O)C2=O', 'Y'),
  ('COCCOCCOCCNC1=C2C[C@@H](C)C[C@H](OC)[C@H](O)[C@@H](C)/C=C(\C)[C@H](OC(N)=O)[C@@H](OC)/C=C\C=C(/C)C(=O)NC(=CC1=O)C2=O', 'N'),
  ('CO[C@H]1/C=C\C=C(/C)C(=O)NC2=CC(=O)C(NCCO)=C(C[C@@H](C)C[C@H](OC)[C@H](O)[C@@H](C)/C=C(\C)[C@@H]1OC(N)=O)C2=O', 'N'),
  ('CO[C@H]1/C=C\C=C(/C)C(=O)NC2=CC(=O)C(NCC3CCC(C(=O)O)CC3)=C(C[C@@H](C)C[C@H](OC)[C@H](O)[C@@H](C)/C=C(\C)[C@@H]1OC(N)=O)C2=O (some centres not stated)', 'N'),
  ('CO[C@H]1/C=C\C=C(/C)C(=O)NC2=CC(=O)C(NCC3COCCOCCOCCOCCOCCO3)=C(C[C@@H](C)C[C@H](OC)[C@H](O)[C@@H](C)/C=C(\C)[C@@H]1OC(N)=O)C2=O (some centres not stated)', 'N'),
  ('CO[C@H]1/C=C\C=C(/C)C(=O)NC2=CC(=O)C(NC3CCC(O)CC3)=C(C[C@@H](C)C[C@H](OC)[C@H](O)[C@@H](C)/C=C(\C)[C@@H]1OC(N)=O)C2=O (some centres not stated)', 'N'),
  ('CO[C@H]1/C=C\C=C(/C)C(=O)NC2=CC(=O)C(NCC3COCCOCCOCCOCCO3)=C(C[C@@H](C)C[C@H](OC)[C@H](O)[C@@H](C)/C=C(\C)[C@@H]1OC(N)=O)C2=O (some centres not stated)', 'Y'),
  ('CO[C@H]1/C=C\C=C(/C)C(=O)NC2=CC(=O)C(NCc3ccccc3F)=C(C[C@@H](C)C[C@H](OC)[C@H](O)[C@@H](C)/C=C(\C)[C@@H]1OC(N)=O)C2=O', 'N'),
  ('CO[C@@H](C=CC=C(C)C(N)=O)[C@@H](OC(N)=O)/C(C)=C/[C@H](C)[C@@H](O)[C@H](C[C@H](C)CC1=C(NCCOCCO)C(=O)C=C(NCCOCCO)C1=O)OC', 'N');

Task: Could you please tell me whether selectivity ratio recorded for CO[C@H]1/C=C\C=C(/C)C(=O)NC2=CC(=O)C(NCCCCO)=C(C[C@@H](C)C[C@H](OC)[C@H](O)[C@@H](C)/C=C(\C)[C@@H]1OC(N)=O)C2=O is less than 2?
Result: N

Task: Hello, I'm reviewing records and need to know if selectivity ratio of CO[C@H]1/C=C\C=C(/C)C(=O)NC2=CC(=O)C(NCCCCCCO)=C(C[C@@H](C)C[C@H](OC)[C@H](O)[C@@H](C)/C=C(\C)[C@@H]1OC(N)=O)C2=O is below 2. Could you check?
Result: N

Task: Hello, is selectivity ratio of the following molecule strictly smaller than 2? CCOC(=O)C1CCC(CNC2=C3C[C@@H](C)C[C@H](OC)[C@H](O)[C@@H](C)/C=C(\C)[C@H](OC(N)=O)[C@@H](OC)/C=C\C=C(/C)C(=O)NC(=CC2=O)C3=O)CC1 (some centres not stated)
Result: N

----------
assay: Selectivity index, ratio of IC50 for cytotoxicity against human HDF cells to IC50 for cytotoxicity against human U-87 MG cells; type: toxicity, cell-based; conditions: HDF cells versus U-87 MG cells, read-out: Ratio IC50
Parameter: selectivity ratio. Scope: all listed entries.
Number only, please.

INSERT INTO measurements (chemical_smiles, measured_result) VALUES
  ('C#CCCN1CCC(NC2=C3C[C@@H](C)C[C@H](OC)[C@H](O)[C@@H](C)/C=C(\C)[C@H](OC(N)=O)[C@@H](OC)/C=C\C=C(/C)C(=O)NC(=CC2=O)C3=O)CC1', 2.42),
  ('CO[C@H]1/C=C\C=C(/C)C(=O)NC2=CC(=O)C(NNC3=NCCN3)=C(C[C@@H](C)C[C@H](OC)[C@H](O)[C@@H](C)/C=C(\C)[C@@H]1OC(N)=O)C2=O', 1.88);

Task: Please look up its selectivity ratio: CO[C@H]1/C=C\C=C(/C)C(=O)NC2=CC(=O)C(NCc3cccc(N4CCOC4=O)c3)=C(C[C@@H](C)C[C@H](OC)[C@H](O)[C@@H](C)/C=C(\C)[C@@H]1OC(N)=O)C2=O
Result: 3.55

----------
experiment: Selectivity index, ratio of IC50 for cytotoxicity against human HDF cells to IC50 for cytotoxicity against human SK-BR-3 cells; format: toxicity, cell-based; settings: HDF cells versus SK-BR-3 cells, read-out: Ratio IC50
Values of selectivity ratio greater than or equal to 2 map to yes; values below map to no.

Study these solved cases before continuing.
INSERT INTO measurements (chemical_smiles, assigned_category) VALUES
  ('CO[C@H]1/C=C\C=C(/C)C(=O)NC2=CC(=O)C(NCc3cccc(CS(=O)(=O)N(C(C)C)C(C)C)c3)=C(C[C@@H](C)C[C@H](OC)[C@H](O)[C@@H](C)/C=C(\C)[C@@H]1OC(N)=O)C2=O', 'yes'),
  ('CO[C@H]1/C=C\C=C(/C)C(=O)NC2=CC(=O)C(NCCN3CCCC3=O)=C(C[C@@H](C)C[C@H](OC)[C@H](O)[C@@H](C)/C=C(\C)[C@@H]1OC(N)=O)C2=O', 'no'),
  ('CO[C@H]1/C=C\C=C(/C)C(=O)NC2=CC(=O)C(NCCCN3CCCC3)=C(C[C@@H](C)C[C@H](OC)[C@H](O)[C@@H](C)/C=C(\C)[C@@H]1OC(N)=O)C2=O', 'yes'),
  ('CCCCOCCOCCNC1=C2C[C@@H](C)C[C@H](OC)[C@H](O)[C@@H](C)/C=C(\C)[C@H](OC(N)=O)[C@@H](OC)/C=C\C=C(/C)C(=O)NC(=CC1=O)C2=O', 'yes');

Note: attention shifts to another entry.
Task: Could you please find out whether CO[C@H]1/C=C\C=C(/C)C(=O)NC2=CC(=O)C(NC3CCN(Cc4ccccc4)CC3)=C(C[C@@H](C)C[C@H](OC)[C@H](O)[C@@H](C)/C=C(\C)[C@@H]1OC(N)=O)C2=O has selectivity ratio that meets 2 or exceeds it?
Result: yes

----------
experiment: Selectivity index, ratio of IC50 for cytotoxicity against human HDF cells to IC50 for cytotoxicity against human PC-3 cells; assay type: toxicity, cell-based; settings: HDF cells versus PC-3 cells, read-out: Ratio IC50
ATTRIBUTE_MEASURED: selectivity ratio
Please give only the number in your answer, with no unit.

For orientation, consider the following solved cases.
INSERT INTO assay_data (chemical_smiles, measured_result) VALUES
  ('CO[C@H]1/C=C\C=C(/C)C(=O)NC2=CC(=O)C(NCCCCCCO)=C(C[C@@H](C)C[C@H](OC)[C@H](O)[C@@H](C)/C=C(\C)[C@@H]1OC(N)=O)C2=O', 2.67),
  ('CO[C@H]1/C=C\C=C(/C)C(=O)NC2=CC(=O)C(NCCCN3CCCC3)=C(C[C@@H](C)C[C@H](OC)[C@H](O)[C@@H](C)/C=C(\C)[C@@H]1OC(N)=O)C2=O', 2.7),
  ('CCOC(=O)N1CCC(NC2=C3C[C@@H](C)C[C@H](OC)[C@H](O)[C@@H](C)/C=C(\C)[C@H](OC(N)=O)[C@@H](OC)/C=C\C=C(/C)C(=O)NC(=CC2=O)C3=O)CC1', 4.69),
  ('CO[C@@H](C=CC=C(C)C(N)=O)[C@@H](OC(N)=O)/C(C)=C/[C@H](C)[C@@H](O)[C@H](C[C@H](C)CC1=C(NCCCCCCO)C(=O)C=C(NCCCCCCO)C1=O)OC', 1.48);

Please turn your attention to the following entry.
Task: What does the record list as selectivity ratio for CO[C@H]1/C=C\C=C(/C)C(=O)NC2=CC(=O)C(NCCOCCO)=C(C[C@@H](C)C[C@H](OC)[C@H](O)[C@@H](C)/C=C(\C)[C@@H]1OC(N)=O)C2=O ?
Result: 2.55
